biological target: menin/MLL (terbium chelate-labeled menin, FITC-MBM1 peptide) (Homo sapiens, UniProt O00255, T541A); construct: Menin (a.a 1-610-6xhis tag, 2.3 mg/mL in 20 mM Hepes); experiment: Menin/MLL homogenous time-resolved fluorescence (HTRF) assay; conditions: 30 min incubation
Please go through the items and note down their pIC50.
Give bare numbers, as −log10 of the molar value.

| COMPOUND | pIC50 |
| --- | --- |
| CC(=O)N1CC[C@@H](CN2CCC(Cc3cn(-c4ccc(F)cc4C(=O)N(C)C(C)C)c4cncc(C)c34)CC2)C1 | 9.26 |

Below are some compounds; for each one, tell me its pIC50.
1. Cc1cncc2c1c(C[C@@H]1CCN([C@@H](CN(C)C)C3CCOCC3)C1)cn2-c1ccc(F)cc1C(=O)N(C)C(C)C (single isomer, unassigned) [Compound 240a]
2. Cc1cncc2c1c(CC1CCN(C[C@H]3CCC(=O)N3)CC1)cn2-c1ccc(F)cc1C(=O)N(C)C(C)C

1: 9.39; 2: 8.74

Quickly give me recorded pIC50 for Cc1cncc2c1c(C[C@@H]1CCN(CC3CCC(O)CC3)C1)cn2-c1ccc(F)cc1C(=O)N(C)C(C)C (stereo partly drawn) [Compound 205]
9.97

====

target: menin/MLL (terbium chelate-labeled menin, FITC-MBM1 peptide) (Homo sapiens, UniProt O00255, T541A); construct: Menin (a.a 1-610-6xhis tag, 2.3 mg/mL in 20 mM Hepes); test: Menin/MLL homogenous time-resolved fluorescence (HTRF) assay; details: 30 min incubation
MEASURED ATTRIBUTE: IC50 (nM)
One number for each entry, in nM.

Consider the following illustrative entries.
| COMPOUND | IC50 / nM |
| --- | --- |
| CC(=O)N1C[C@@H]2CN(CCCC(C(C)C)N3CC[C@H](Cc4cn(-c5ccc(F)cc5C(=O)N(C)C(C)C)c5cncc(C)c45)C3)C[C@H]2C1 (mixture of isomers) [Compound 13] | 0.124 |
| Cc1cncc2c1c(C[C@@H]1CCN(CC3CCOCC3)C1)cn2-c1ccc(F)cc1C(=O)N(C)C(C)C (single isomer, unassigned) [Compound 42] | 0.03 |
| Cc1cncc2c1c(C[C@@H]1CCN([C@@H](C)C3CCOCC3)C1)cn2-c1ccc(F)cc1[S@](=N)(=O)C(C)C (single isomer, unassigned) [Compound 180b] | 7.29 |
| CC(=O)N1CCC[C@@H](CN2CC(Cc3cn(-c4ccc(F)cc4C(=O)N(C)C(C)C)c4cncc(C)c34)C2)C1 (single isomer, unassigned) [Compound 90b] | 0.263 |
| COCCN(C)CCCC(C(C)C)N1CC[C@H](Cc2cn(-c3ccc(F)cc3C(=O)N(C)C(C)C)c3cncc(C)c23)C1 (single isomer, unassigned) [Compound 2] | 0.049 |
| Cc1cncc2c1c(C[C@@H]1CCN(C[C@H]3CCCCN3)C1)cn2-c1ccc(F)cc1C(=O)N(C)C(C)C [Compound 199] | 0.327 |
| Cc1cncc2c1c(CC1CN([C@@H](C(C)C)[C@H]3C[C@H](N4CCN(S(C)(=O)=O)CC4)C3)C1)cn2-c1ccc(F)cc1C(=O)N(C)C(C)C (single isomer, unassigned) [Compound 34b] | 0.092 |
| [2H]C([2H])([2H])N(C(=O)c1cc(F)ccc1-n1cc(C[C@@H]2CCN(CC3CCN(C(C)=O)CC3)C2)c2c(C)cncc21)C(C)C [Compound 314] | 0.055 |

// for each compound below, give its IC50
1. CC(=O)N1C[C@@H]2[C@@H](CN3CC[C@@H](Cc4cn(-c5ccc(F)cc5C(=O)N(C)C(C)C)c5cncc(C)c45)C3)[C@@H]2C1 [Compound 187]
2. CC[C@@H]([C@H]1C[C@@H](N2C[C@H]3CN(C(C)=O)C[C@@H]3C2)C1)N1CC[C@H](Cc2cn(-c3ccc(F)cc3C(=O)N(C)C(C)C)c3cncc(Cl)c23)C1 (single isomer, unassigned) [Compound 27c]
3. Cc1cncc2c1c(C[C@@H]1CCN([C@H](CCC3OCCO3)C(C)C)C1)cn2-c1ccc(F)cc1C(=O)N(C)C(C)C (single isomer, unassigned) [Compound 367]

1. 1.02
2. 0.038
3. 0.201

====

Molecular target: menin/MLL (terbium chelate-labeled menin, FITC-MBM1 peptide) (Homo sapiens, UniProt O00255, T541A)
Construct: Menin (a.a 1-610-6xhis tag, 2.3 mg/mL in 20 mM Hepes)
Sequence (O00255 with tags, fused parts or gaps T541A): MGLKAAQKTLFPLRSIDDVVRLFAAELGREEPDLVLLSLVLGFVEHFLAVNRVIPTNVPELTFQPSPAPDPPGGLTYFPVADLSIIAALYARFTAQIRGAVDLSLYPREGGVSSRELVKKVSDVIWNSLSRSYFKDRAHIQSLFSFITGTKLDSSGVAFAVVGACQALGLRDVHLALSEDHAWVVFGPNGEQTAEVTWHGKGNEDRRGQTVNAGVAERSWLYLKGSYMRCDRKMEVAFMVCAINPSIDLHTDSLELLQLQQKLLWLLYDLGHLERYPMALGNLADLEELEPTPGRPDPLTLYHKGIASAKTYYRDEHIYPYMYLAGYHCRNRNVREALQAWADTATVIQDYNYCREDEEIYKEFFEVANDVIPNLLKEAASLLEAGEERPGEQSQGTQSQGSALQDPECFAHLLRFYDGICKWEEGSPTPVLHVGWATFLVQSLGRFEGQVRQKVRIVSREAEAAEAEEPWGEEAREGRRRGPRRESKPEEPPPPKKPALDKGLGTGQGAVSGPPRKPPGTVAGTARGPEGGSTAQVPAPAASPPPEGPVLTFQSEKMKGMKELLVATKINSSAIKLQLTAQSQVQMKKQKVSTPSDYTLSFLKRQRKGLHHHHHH
Experiment: Menin/MLL homogenous time-resolved fluorescence (HTRF) assay
Conditions: 30 min incubation
MEASURED ATTRIBUTE: IC50 (pM)
Numbers only, in pM.

Would you mind listing IC50 for each of the following compounds?
1. CC(=O)N1CCC(C)(CN2CC[C@H](Cc3cn(-c4ccc(F)cc4C(=O)N(C)C(C)C)c4cncc(C)c34)C2)CC1 (single isomer, unassigned)
2. CC(=O)N1CCC([C@H](C)N2CC[C@@H](Cc3cn(-c4ccc(F)cc4[S@@](=N)(=O)C(C)C)c4cncc(C)c34)C2)CC1 (single isomer, unassigned) [Compound 231b]
3. Cc1cncc2c1c(CC1CN(CC3CCN(C(=O)C4(O)CC4)CC3)C1)cn2-c1ccc(F)cc1C(=O)N(C)C(C)C

[50, 6940, 66]

====

biological target: menin/MLL (terbium chelate-labeled menin, FITC-MBM1 peptide) (Homo sapiens, UniProt O00255, T541A); construct: Menin (a.a 1-610-6xhis tag, 2.3 mg/mL in 20 mM Hepes); experiment: Menin/MLL homogenous time-resolved fluorescence (HTRF) assay; conditions: 30 min incubation
Answer each item with its documented pIC50.
Numbers only, as −log10 of the molar value.

| COMPOUND | pIC50 |
| --- | --- |
| CON(C)C(=O)N1CCC(CN2CC[C@@H](Cc3cn(-c4ccc(F)cc4C(=O)N(C)C(C)C)c4cncc(C)c34)C2)CC1 [Compound 173] | 10.25 |

Lab note: each compound below needs its pIC50 filled in.
1. CNC(=O)c1cccc(CN2CC(Cc3cn(-c4ccc(F)cc4C(=O)N(C)C(C)C)c4cncc(C)c34)C2)c1 [Compound 283]
2. CC(=O)N1CCC(CN2CC[C@@H](Cc3cn(-c4ccc(F)cc4C(=O)N(CCO)C(C)C)c4cncc(C)c34)C2)CC1 [Compound 326]
3. COC(=O)N1CCC(CN2CC(Cc3cn(-c4ccc(F)cc4C(=O)N(C)C(C)C)c4cncc(C)c34)C2)CC1 [Compound 65]
4. CC(=O)N1[C@H](C)CC(N2CC(Cc3cn(-c4ccc(F)cc4C(=O)N(C)C(C)C)c4cncc(C)c34)C2)C[C@@H]1C (stereo partly drawn) [Compound 301]
5. Cc1cncc2c1c(C[C@@H]1CCN(CC3CCN(C(=O)C(C)C)CC3)C1)cn2-c1ccc(F)cc1C(=O)N(C[C@@H](C)O)C(C)C [Compound 331]
6. COCCN(C)CCCC(C(C)C)N1CC[C@@H](Cc2cn(-c3ccc(F)cc3C(=O)N(C)C(C)C)c3cncc(Cl)c23)C1 (stereo partly drawn) [Compound 3]

[9.21, 10.42, 10.10, 9.72, 9.93, 10.59]

Batch of 4 compounds: report pIC50 for each.
1. CC(=O)N1C[C@@H]2CN([C@H]3C[C@H]([C@@H](C(C)C)N4CC(Cc5cn(-c6ccc(F)cc6C(=O)N(C)C(C)C)c6cncc(Cl)c56)C4)C3)C[C@H]2C1 (single isomer, unassigned) [Compound 39b]
2. COCCN(C)CCCC(C(C)C)N1CC[C@H](Cc2cn(-c3ccc(F)cc3C(=O)N(C)C(C)C)c3cncc(Cl)c23)C1 (stereo partly drawn) [Compound 4]
3. CC(=O)N1CCC([C@H](C)N2CC[C@H](Cc3cn(-c4ccc(F)cc4[S@](=N)(=O)C(C)C)c4cncc(C)c34)C2)CC1 (single isomer, unassigned) [Compound 232b]
4. Cc1cncc2c1c(C[C@@H]1CCN(C(C)C3CCOCC3)C1)cn2-c1ccc(F)cc1C(=O)N(C)C(C)C (mixture of isomers) [Compound 48]

1: 10.28; 2: 10.80; 3: 8.39; 4: 10.22

Tell me its pIC50 given CC(=O)N1CCC(CN2C[C@@H](Cc3cn(-c4ccc(F)cc4C(=O)N(C)C(C)C)c4cncc(C)c34)C[C@H]2C)CC1 [Compound 131] as the entry.
9.88
